The origin of these recorded values is patent US12590062B2.

# AC50 per record follows
Target: PD-L1 (Homo sapiens)
Construct: determine if they can specifically dimerize the extracellular domains of PD-L1
Sequence (Q9NZQ7 19-238 limits assumed): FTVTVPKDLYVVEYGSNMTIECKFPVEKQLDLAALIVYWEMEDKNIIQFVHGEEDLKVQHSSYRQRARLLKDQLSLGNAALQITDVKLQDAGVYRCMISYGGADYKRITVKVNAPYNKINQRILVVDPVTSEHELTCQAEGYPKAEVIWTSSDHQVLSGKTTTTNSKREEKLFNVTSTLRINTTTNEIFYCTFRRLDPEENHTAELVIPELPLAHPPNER
Sequence (Q9NZQ7 19-238 limits assumed): as above
Test: PD-L1/PD-L1 dimerization biochemical protein-protein interaction assay (ALPHA)
Assay type: binding
Conditions: compound-induced PD-L1 dimerization, head prints '1 nM' (0.5 nM His-tagged PD-L1 and 0.5 nM FLAG-tagged PD-L1), read-out: AC50 PDL1 Dimer Alpha 1 nM
assay_metric: AC50 (nM)

1. COc1nc(-c2cccc(-c3cccc(-c4ccc5c(c4)CCC5N)c3Cl)c2Cl)ccc1C1=NCCN1 (stereo not drawn) :: 20.9
2. Cc1c(COc2cc(OCc3cncc(C#N)c3)c(CNCCO)cc2Cl)cccc1-c1cccc(-c2ccc(CNCCO)cc2)c1CF :: 174
3. Cc1c(COc2cc(OCc3cncc(C#N)c3)c(CN[C@@](C)(CO)C(=O)O)cc2Cl)cccc1-c1cccc(-c2ccc(OCCN3CCC4(CC3)CC(=O)N4)cc2)c1C :: 301
